Recorded pKi values (Macrophage metalloelastase (Homo sapiens, UniProt P39900)) are given below.
pKi: −log10 of the molar value.
OBSERVED PROPERTY: pKi

Example entries begin here.
{"columns": ["ENTRY SMILES", "pKi"],
 "data": [
  ["COc1ccc(CCS(=O)(=O)NCC(=O)NO)cc1", 8.00],
  ["O=C(CNS(=O)(=O)CCc1ccc(Cl)s1)NO", 8.22],
  ["O=C(NO)[C@@H]1CCCN1S(=O)(=O)CCc1ccc2c(c1)OCO2", 8.30]
]}

P = O=C(O)CNS(=O)(=O)CCc1ccc(-c2ccccc2)cc1
Q = O=C(O)CNS(=O)(=O)CCc1ccc(Cl)s1
R = O=C(CNS(=O)(=O)CCc1ccc2c(c1)OCO2)NO
S = O=C(O)CNS(=O)(=O)c1ccc(-c2ccccc2)cc1
QUERY: Form: Sort by [pKi] Order [ ascending ] Provide your answer as the labels ordered per the instruction.
RESULT: S, Q, R, P
